Test system: NCI/ADR-RES
ASSAY OVERVIEW: NCI tumour cell line growth inhibition, 48 h
Where a name gives a salt, the structure may show the parent alone. Activity calls are given as the source filed them. Cut-off read from the data, not from the text of the source: active = GI50 up to about 1.1 µM and inactive = higher.
Recorded GI50, one value per entry.

{"MOLECULE": "O=c1ccs[nH]1", "GI50": "17.7 µM (inactive)"}
{"MOLECULE": "CC(=O)O/C=C\\OC1CCCC1", "GI50": "> 100 µM (inactive)"}
{"MOLECULE": "O=C(Cc1nc2ccc([N+](=O)[O-])cc2nc1O)C(=O)Nc1cc(Cl)c(Cl)cc1Cl", "GI50": "> 100 µM (inactive)"}
{"MOLECULE": "CN(C)CCCN1c2ccccc2Sc2ccc(C(F)(F)F)cc21 [TRIFLUPROMAZINE HYDROCHLORIDE]", "GI50": "17.2 µM (inactive)"}
{"MOLECULE": "COc1ccc(CN2C(=O)C(=O)N(C)C2=O)c2ccccc12", "GI50": "> 10 µM (inactive)"}

Here is another molecule to look at.
Q) Enter reported GI50 observed with NCI/ADR-RES for `COC(=O)[C@@H]1Cc2ccc(OC)c(c2)OCCC(=O)N1`
A) > 100 µM (inactive)

====

Tested on: HOP-62
ASSAY OVERVIEW: NCI tumour cell line growth inhibition, 48 h
Calls of active or inactive are those of the source. Cut-off read from the data, not from the text of the source: active = GI50 up to about 1.1 µM and inactive = higher.
Recorded GI50, one value per entry.

Completed entries (count: 2):
{"COMPOUND": "COC(=O)/C=C/C(=O)Nc1cc(Cl)c(Cl)cc1CC(=O)N(C)[C@H]1CCCC[C@@H]1N1CCCC1", "GI50": "16.9 µM (inactive)"}
{"COMPOUND": "CCCCCCCCCCCCCCCCCCNc1ccn(C2OC(COP(=O)(O)OCC(COP(=O)(O)OCC3OC(n4cc(C)c(=O)[nH]c4=O)CC3N=[N+]=[N-])OCCCCCCCCCCCCCCCCCC)C(O)C2O)c(=O)n1 (centres undefined)", "GI50": "> 100 µM (inactive)"}

Q) # GI50 lookup, item `COc1cccc(-c2c(-c3ccccc3)[nH]c(C)c2C(=O)ONC(=O)c2ccccc2)c1`
A) 2.72 µM (inactive)

Q) Ok, now `COC(=O)[C@@H]1C[C@H]2[C@H](c3ccccc3Br)[C@@H](OC(C)=O)[C@@H](OCc3ccccc3)ON2O1`
A) > 100 µM (inactive)

Q) Ok, now `N=C(N)NS(=O)(=O)c1ccc(NCc2cccc3c(=O)c4ccc(Cl)cc4oc23)cc1`
A) > 10.2 µM (inactive)

Q) Ok, now `O=C1CSC(/C(=C\c2ccc(Cl)cc2)c2nc3ccccc3[nH]2)=N1`
A) 1.94 µM (inactive)

Q) Ok, now `CCN(CC)c1nc(N(C)C)c2ccccc2n1`
A) 49.3 µM (inactive)

Q) Ok, now CCCCCCCSCC(O)COC(c1ccccc1)(c1ccccc1)c1ccccc1 (centres undefined)
A) > 100 µM (inactive)

Q) Ok, now `CC(C)c1ccc(C(O)(C(=O)O)c2ccc(C(C)C)cc2)cc1`
A) 28.3 µM (inactive)

====

System: NCI/ADR-RES
ASSAY OVERVIEW: NCI tumour cell line growth inhibition, 48 h
The source made the active and inactive calls. Cut-off read from the data, not from the text of the source: active = GI50 up to about 1.1 µM and inactive = higher.
QUANTITY: GI50

Completed entries (count: 3):
{"COMPOUND": "O=C(O)C1CC=CCC1C(=O)Nc1cccc(O)c1 (stereo unspecified)", "TEST VALUE": "> 100 µM (inactive)"}
{"COMPOUND": "CCOC(=O)CC(=O)Nc1cccc2sc3ncccc3c(=O)c12", "TEST VALUE": "36.8 µM (inactive)"}
{"COMPOUND": "Cc1occc1/C(S)=N\\c1ccc(Cl)c(C(=O)OCC(F)(F)F)c1", "TEST VALUE": "17.8 µM (inactive)"}

Q) # GI50 lookup, item `CN(C)c1ccc(C=c2c3cc(O)ccc3n3c2cc(-c2ccccc2)[n+]3C)cc1`
A) 36.1 µM (inactive)

Q) Ok, now CN(c1cn(C2CC[C@@H](CO)O2)c(=O)[nH]c1=O)C1CCCCC1 (stereo partly specified)
A) > 100 µM (inactive)

Q) Ok, now `CC(=O)/C(=C/NC(=S)N/N=C1\C(=O)Nc2ccccc21)C(=O)Nc1ccccc1C`
A) > 100 µM (inactive)

====

Tested on: SK-MEL-5
ASSAY OVERVIEW: NCI tumour cell line growth inhibition, 48 h
Calls of active or inactive are those of the source. Cut-off read from the data, not from the text of the source: active = GI50 up to about 1.1 µM and inactive = higher.
QUANTITY: GI50

{"COMPOUND": "COCn1c(C)c(C)c2c(=O)oc(N(C)C)nc21", "GI50": "> 100 µM (inactive)"}

Q) # GI50 lookup, item `COC(=O)/C=C/C(=O)Nc1cc(Cl)c(Cl)cc1CC(=O)N(C)[C@H]1CCCC[C@@H]1N1CCCC1`
A) 8.67 µM (inactive)

Q) Ok, now `NC(=O)c1cc2cc(Cl)cc(Cl)c2o/c1=N\c1ccc(F)cc1`
A) 16.9 µM (inactive)

Q) Ok, now OC1CC1Sc1ccccc1 (stereo unspecified)
A) 31.6 µM (inactive)

Q) Ok, now `c1ccc2c(c1)Sc1ccccc1N2CCCN1c2ccccc2Sc2ccccc21`
A) > 100 µM (inactive)

Q) Ok, now CN(c1cn(C2CC[C@@H](CO)O2)c(=O)[nH]c1=O)C1CCCCC1 (stereo partly specified)
A) > 100 µM (inactive)

====

Test system: HT-29
ASSAY OVERVIEW: NCI tumour cell line growth inhibition, 48 h
Activity calls are given as the source filed them. Cut-off read from the data, not from the text of the source: active = GI50 up to about 1.1 µM and inactive = higher.
// one of active, inactive, no free text

Worked examples, 4 compounds total:
{"COMPOUND": "O=C(NNCC(F)(F)F)c1ccncc1", "GROUP": "inactive"}
{"COMPOUND": "CCN(CCCl)CCCCCNc1c2ccccc2nc2ccc(OC)cc12", "GROUP": "active"}
{"COMPOUND": "COc1ccc(-c2cc(-c3ccco3)c(C#N)c(=S)n2C2OC(COC(C)=O)C(OC(C)=O)C(OC(C)=O)C2OC(C)=O)cc1 (stereo not drawn)", "GROUP": "inactive"}
{"COMPOUND": "CC(=O)c1c(O)nnc(-c2ccc(Cl)cc2)c1-c1ccc(Cl)cc1", "GROUP": "inactive"}

Q) Hi, do you know how `COC(=O)/C=C/C(=O)Nc1cc(Cl)c(Cl)cc1CC(=O)N(C)[C@H]1CCCC[C@@H]1N1CCCC1` came out in this test?
A) inactive

Q) Ok, now `C[C@]12CC[C@H]3[C@@H](CC=C4C[C@@H](O)CC[C@@]43C)[C@@H]1C/C(=C\c1cccnc1)[C@@H]2O`
A) inactive

Q) Ok, now Clc1ccc(C(c2ccccc2Cl)C(Cl)Cl)cc1 (stereo not drawn)
A) inactive

Q) Ok, now COC(=O)CC(c1cn(S(=O)(=O)c2ccc(C)cc2)c2ccccc12)C1C[C@@H](C(=O)OC)N(C(=O)OC(C)(C)C)C1=O (stereo partly drawn)
A) inactive

====

Test system: HOP-62
ASSAY OVERVIEW: NCI tumour cell line growth inhibition, 48 h
Calls of active or inactive are those of the source. Rule as the data show it: active = GI50 up to about 1.1 µM and inactive = higher.
Recorded GI50, one value per entry.

{"COMPOUND": "NC(CNO)C(=O)O (stereo unspecified)", "GI50": "> 100 µM (inactive)"}
{"COMPOUND": "CCN(/C=C1/C(=O)C(c2ccccc2)N(c2ccccc2)C1=O)CC (stereo unspecified)", "GI50": "> 10 µM (inactive)"}

Here is another compound to look at.
Q) # GI50 lookup, item `CC12c3c4cccc3Oc3cc(N)cc(c31)Oc1cc(N)cc(c12)O4`
A) 5.75 µM (inactive)

====

Test system: HCC 2998
ASSAY OVERVIEW: NCI tumour cell line growth inhibition, 48 h
Active and inactive are the calls of the source. Rule as the data show it: active = GI50 up to about 1.1 µM and inactive = higher.
// one of active, inactive, no free text

Worked examples, 5 compounds total:
{"COMPOUND": "CN(Cc1cnc2nc(N)nc(N)c2n1)c1ccc(C(=O)NC(CCC(=O)O)C(=O)O)cc1C(F)(F)F (configuration not stated)", "GROUP": "active"}
{"COMPOUND": "O=C(O)CC(NC(=O)Nc1ccc([N+](=O)[O-])cc1)C(=O)Nc1ccc([N+](=O)[O-])cc1 (configuration not stated)", "GROUP": "inactive"}
{"COMPOUND": "C#Cc1cc(-c2nc3ccccc3s2)ccc1N", "GROUP": "inactive"}
{"COMPOUND": "OC1CC1Sc1ccccc1 (configuration not stated)", "GROUP": "inactive"}
{"COMPOUND": "CCOC(=O)Nc1cc2c(c(N)n1)N=C(c1ccc3ccccc3c1)CN2", "GROUP": "active"}

Q) Hi, do you know how `CC(=O)Nc1oc(C)c(C)c1S(=O)(=O)c1ccc(Cl)cc1` came out in this test?
A) inactive

Q) Ok, now `O=C(Cc1nc2ccc([N+](=O)[O-])cc2nc1O)C(=O)Nc1ccccc1[N+](=O)[O-]`
A) inactive

Q) Ok, now `CC(=O)/C(=C/NC(=S)N/N=C1\C(=O)Nc2ccccc21)C(=O)Nc1ccccc1C`
A) inactive

Q) Ok, now `C/C(CC(=O)Nc1ccc(C)c(C)c1)=N\NC(N)=O`
A) inactive

Q) Ok, now `O/N=N\c1nc(-c2cccnc2)nc2ccccc12`
A) inactive

Q) Ok, now `Nc1nc(-c2cccnc2)cc(-c2cc(-c3cccnc3)nc(N)n2)n1`
A) inactive

Q) Ok, now `Cc1ccc(C(=O)/C=C2\Nc3ccccc3S\C2=N\CS(=O)(=O)c2ccc(C)cc2)cc1`
A) inactive
